Test system: hLiMTs
Experiment: Combined HCI (HCS) and cellular ATP 3D assay in hLiMTs
Settings: hLiMTs; all endpoints; cut-off <10 uM
PROPERTY_LABEL: hLiMTs <10 uM All

Worked cases, answers included:
compound="CN(C)CCCN1c2ccccc2Sc2ccc(Cl)cc21 [chlorpromazine, reference compound]" property_label="hLiMTs <10 uM All" assay_result="+ve (<10 uM)"
compound="CC(=O)Nc1ccc(O)cc1 [acetaminophen]" property_label="hLiMTs <10 uM All" assay_result=-ve
compound="Cc1c(C)c2c(c(C)c1O)CCC(C)(COc1ccc(CC3SC(=O)NC3=O)cc1)O2 (centres unmarked) [troglitazone, reference compound]" property_label="hLiMTs <10 uM All" assay_result=-ve
compound="CC(COc1ccccc1)N(CCCl)Cc1ccccc1 (centres unmarked) [phenoxybenzamine]" property_label="hLiMTs <10 uM All" assay_result=-ve
compound="NNC(=O)c1ccncc1 [isoniazid, reference compound]" property_label="hLiMTs <10 uM All" assay_result=-ve

State the recorded hLiMTs <10 uM All for this entry: O=C1CN(/N=C/c2ccc(-c3ccc([N+](=O)[O-])cc3)o2)C(O)=N1 [dantrolene]
-ve

State the recorded hLiMTs <10 uM All for this entry: CN(C)C(=O)Oc1cccc([N+](C)(C)C)c1 [neostigmine]
-ve

State the recorded hLiMTs <10 uM All for this entry: COc1ccccc1Oc1c(NS(=O)(=O)c2ccc(C(C)(C)C)cc2)nc(-c2ncccn2)nc1OCCO [bosentan]
-ve

State the recorded hLiMTs <10 uM All for this entry: C1CCC(C(CC2CCCCN2)C2CCCCC2)CC1 (centres unmarked) [perhexiline]
+ve (<10 uM)

State the recorded hLiMTs <10 uM All for this entry: N[C@@H]1[C@H]2CN(c3nc4c(cc3F)c(=O)c(C(=O)O)cn4-c3ccc(F)cc3F)C[C@@H]12 [trovafloxacin]
-ve

State the recorded hLiMTs <10 uM All for this entry: Cc1ccc(N(CC2=NCCN2)c2cccc(O)c2)cc1 [phentolamine]
-ve
